Test system: Caco-2 cells
TEST_SUMMARY: Membrane permeability test using Caco-2 cells with preincubation
Format: in vitro ADME
COND: Caco-2 cells, preincubation 20 to 24 hours; apical FaSSIF/HBSS 1% DMSO pH 6.0, basal HBSS 4% BSA pH 7.4; basal sample at 180 minutes
Starred links: 1 amine or outer side, 2 acyl side, 3 side chain; linkers in the order of their positions; H or OH if unused. Non-standard residues stand in square brackets, D forms with d. Residues, ends and D or L forms follow the SMILES beside them. NMeF = CN[C@@H](Cc1ccccc1)C(=O)O; NMeGABA = CN(CCCC(=O)[*:2])[*:1]; NMeT = CN[C@H](C(=O)O)[C@@H](C)O; NMeL = CN[C@@H](CC(C)C)C(=O)O; NMeV = CN[C@H](C(=O)O)C(C)C; d(β3hA) = C[C@@H](N)CC(=O)O; NMeAbu = CC[C@H](NC)C(=O)O; NMeA = CN[C@@H](C)C(=O)O
VALUE_KIND: Caco2 Papp (10^-6 cm/sec)

compound="CC[C@H](C)[C@@H]1NC(=O)[C@H](C)N(C)C(=O)[C@H]([C@@H](C)O)N(C)C(=O)[C@H](CC(C)C)N(C)C(=O)[C@H](C(C)C)NC(=O)[C@H](Cc2ccccc2)N(C)C(=O)[C@H](Cc2ccccc2)N(C)C(=O)[C@H](C)NC(=O)[C@H](CC)N(C)C(=O)[C@H]([C@@H](C)CC)NC(=O)CCCN(C)C(=O)C[C@@H](C)NC(=O)[C@H](C(C)C)N(C)C1=O [pd132] (cyclo(A[NMeF][NMeF]V[NMeL][NMeT][NMeA]I[NMeV][d(β3hA)][NMeGABA]I[NMeAbu]))" result="0.36 10^-6 cm/sec"

###

Test system: Caco-2 cells
TEST_SUMMARY: Membrane permeability test using Caco-2 cells with preincubation
Format: in vitro ADME
COND: Caco-2 cells, preincubation 20 to 24 hours; apical FaSSIF/HBSS 1% DMSO pH 6.0, basal HBSS 4% BSA pH 7.4; basal sample at 180 minutes
Starred links: 1 amine or outer side, 2 acyl side, 3 side chain; linkers in the order of their positions; H or OH if unused. Positions of bridges follow the written chain, without caps; N, C: chain ends. Non-standard residues stand in square brackets, D forms with d. Residues, ends and D or L forms follow the SMILES beside them. *: point of attachment. NMeF = CN[C@@H](Cc1ccccc1)C(=O)O; hPhe = N[C@@H](CCc1ccccc1)C(=O)O; NMeβAla = CN(CCC(=O)[*:2])[*:1]; NMeD = CN[C@@H](CC(=O)O)C(=O)O; NMeL = CN[C@@H](CC(C)C)C(=O)O; NMeV = CN[C@H](C(=O)O)C(C)C; d(β3hA) = C[C@@H](N)CC(=O)O; NMeAbu = CC[C@H](NC)C(=O)O; NMeA = CN[C@@H](C)C(=O)O; Piperidide = C1CCN(*)CC1; Abu = CC[C@H](N)C(=O)O; Sar = CNCC(=O)O; tBu = CC(C)(C)*
VALUE_KIND: Caco2 Papp (10^-6 cm/sec)

molecule="CC[C@@H]1NC(=O)[C@H](CC(C)C)N(C)C(=O)[C@H](C)NC(=O)[C@@H]2CCCN2C(=O)[C@H](CC)N(C)C(=O)[C@H](CC(C)C)N(C)C(=O)CN(C)C(=O)[C@H](Cc2ccccc2)N(C)C(=O)[C@H]([C@@H](C)CC)NC(=O)CCN(C)C(=O)[C@H](C(C)C)N(C)C(=O)[C@H](COC(C)(C)C)NC(=O)[C@H](CC(C)C)N(C)C(=O)C[C@@H](C(=O)N2CCCCC2)N(C)C1=O [pd083] ([NMeL]S(tBu)[NMeV][NMeβAla]I[NMeF][Sar][NMeL][NMeAbu]PA[NMeL][Abu][NMeD]-Piperidide; lactam N-14)" experimental_target="Caco-2 cells" result="0.04 10^-6 cm/sec"
molecule="CC[C@H](C)[C@@H]1NC(=O)[C@H](CC(C)C)N(C)C(=O)[C@H](CC(C)C)NC(=O)[C@H](C)N(C)C(=O)[C@H](Cc2ccccc2)N(C)C(=O)[C@@H]2CCCN2C(=O)[C@H](CC(C)C)N(C)C(=O)[C@H](CCc2ccccc2)NC(=O)CCN(C)C(=O)C[C@@H](C)NC(=O)[C@H](CC(C)C)N(C)C(=O)[C@H]([C@@H](C)O)NC(=O)[C@H](C)N(C)C(=O)[C@H](C(C)C)N(C)C1=O [pd056] (cyclo(I[NMeV][NMeA]T[NMeL][d(β3hA)][NMeβAla][hPhe][NMeL]P[NMeF][NMeA]L[NMeL]))" experimental_target="Caco-2 cells" result="0.27 10^-6 cm/sec"

All figures here come from patent EP4768499A1.
